# assay.method.text: Cytotoxicity against human lymphocytes after 72 hrs by MTT assay
# Format: cell-based
# condition.context: Lymphocyte
Values of IC50 strictly less than 600 nM map to yes (1), and values of at least 600 nM map to no (0).

                                smiles_text    group
0  COc1ccc2c(c1)SC1=N/C(=C\c3sc4ccccc4[n+]3C)C=C(C)N12.[O-][Cl+3]([O-])([O-])[O-]  yes (1)
1  CC1=C/C(=C/c2oc3ccccc3[n+]2C)C(C#N)=C2Sc3ccccc3N12.[O-][Cl+3]([O-])([O-])[O-]  yes (1)
2  CC1=C/C(=C/c2oc3ccccc3[n+]2C)N=C2Sc3cc(Cl)ccc3N12.[O-][Cl+3]([O-])([O-])[O-]  yes (1)
3  CCOc1ccc2c(c1)SC1=N/C(=C\c3oc4ccccc4[n+]3C)C=C(C)N12.[O-][Cl+3]([O-])([O-])[O-]  yes (1)
4  COc1ccc2c(c1)SC1=N/C(=C\c3oc4ccccc4[n+]3C)C=C(C)N12.[O-][Cl+3]([O-])([O-])[O-]  yes (1)
5  CC1=C/C(=C/c2sc3ccccc3[n+]2C)N=C2Sc3cc(OCCO)ccc3N12.[O-][Cl+3]([O-])([O-])[O-]   no (0)

====

# Tested on: Calf thymus DNA
# assay.method.text: Binding affinity to calf thymus double helix DNA assessed as thermal denaturation-associated change in melting temperature at pH 7 by tangent method
# Type: nucleic-acid assay
# condition.context: Bos taurus
assay.metric: ΔTm (°C)

                                smiles_text  result
0  CC1=C/C(=C/c2oc3ccccc3[n+]2C)N=C2Sc3cc(Cl)ccc3N12.[O-][Cl+3]([O-])([O-])[O-]       1
1  CC1=C/C(=C/c2sc3ccccc3[n+]2C)N=C2C=CC=CN12.[O-][Cl+3]([O-])([O-])[O-]     1.9
2  COc1ccc2c(c1)SC1=N/C(=C\c3oc4ccccc4[n+]3C)C=C(C)N12.[O-][Cl+3]([O-])([O-])[O-]     2.7
3  CC1=C/C(=C/c2sc3ccccc3[n+]2C)N=C2Sc3cc(OCCO)ccc3N12.[O-][Cl+3]([O-])([O-])[O-]     1.3

====

# Tested on: Nucleic Acid
# assay.method.text: Binding affinity to poly A-poly U assessed as thermal denaturation-associated change in melting temperature at pH 7 by tangent method
# Type: nucleic-acid assay
Recorded measurements of ΔTm, one per entry
assay.metric: ΔTm (°C)

In [3]: df
Out[3]:
                                smiles_text  result
0  CC1=C/C(=C/c2sc3ccccc3[n+]2C)N=C2Sc3cc(OCCO)ccc3N12.[O-][Cl+3]([O-])([O-])[O-]       0
1  CC1=C/C(=C/c2oc3ccccc3[n+]2C)N=C2Sc3cc(OCCO)ccc3N12.[O-][Cl+3]([O-])([O-])[O-]       0
2  COc1ccc2c(c1)SC1=N/C(=C\c3sc4ccccc4[n+]3C)C=C(C)N12.[O-][Cl+3]([O-])([O-])[O-]       0

====

# System: Nucleic Acid
# assay.method.text: Binding affinity to poly A-poly U at pH 7 by fluorometric titration method
# Assay type: nucleic-acid assay
assay.metric: log Ks

>>> print(df.to_string())
                                smiles_text  result
0  CC1=C/C(=C/c2oc3ccccc3[n+]2C)N=C2Sc3cc(Cl)ccc3N12.[O-][Cl+3]([O-])([O-])[O-]     4.5
1  CC1=C/C(=C/c2oc3ccccc3[n+]2C)N=C2Sc3cc(OCCO)ccc3N12.[O-][Cl+3]([O-])([O-])[O-]     4.3
2  CC1=C/C(=C/c2sc3ccccc3[n+]2C)N=C2Sc3cc(OCCO)ccc3N12.[O-][Cl+3]([O-])([O-])[O-]     4.5
3  CCOc1ccc2c(c1)SC1=N/C(=C\c3oc4ccccc4[n+]3C)C=C(C)N12.[O-][Cl+3]([O-])([O-])[O-]     4.5
